# EXPERIMENTAL PROTOCOL: Inhibition of porcine heart SQR in SCR complex assessed as reduction in ubiquinol-cytochrome c reductase (complex 3) activity by measuring cytochrome c level using succinate and DCIP substrate by spectrophotometry
# Set-up: species or system Sus scrofa
MEASURE NAME: IC50 (nM)
The figure you give is taken to be in nM; do not add the unit.

Cc1ccc(CSc2nc3cc(NC(=O)c4cn(C)nc4C(F)F)ccc3o2)cc1
216
Cn1cc(C(=O)Nc2ccc3oc(SCc4ccc(C#N)cc4)nc3c2)c(C(F)F)n1
397
Cn1cc(C(=O)Nc2ccc3oc(SCc4ccc(F)c(F)c4)nc3c2)c(C(F)F)n1
100
Cn1cc(C(=O)Nc2ccc3oc(SCc4ccc(OC(F)(F)F)cc4)nc3c2)c(C(F)F)n1
38
COc1ccc(CSc2nc3cc(NC(=O)c4cn(C)nc4C(F)(F)F)ccc3o2)cc1
284
Cn1cc(C(=O)Nc2ccc3oc(SCc4ccc(C(F)(F)F)cc4)nc3c2)c(C(F)F)n1
39
Cn1cc(C(=O)Nc2ccc3oc(SCc4ccc(C(F)(F)F)cc4)nc3c2)c(C(F)(F)F)n1
83
Cn1cc(C(=O)Nc2ccc3oc(SCc4ccc(OC(F)(F)F)cc4)nc3c2)c(C(F)(F)F)n1
88

Moving on to the next compound.
Retrieve IC50 measured for Cn1cc(C(=O)Nc2ccc3oc(SCc4ccc(F)c(F)c4)nc3c2)c(C(F)(F)F)n1 and print it.
130

* * *

# SYSTEM TESTED: Succinate-ubiquinone oxidoreductase (Sus scrofa, UniProt A5GZW8+D0VWV4)
# Sequence (A5GZW8 whole entry): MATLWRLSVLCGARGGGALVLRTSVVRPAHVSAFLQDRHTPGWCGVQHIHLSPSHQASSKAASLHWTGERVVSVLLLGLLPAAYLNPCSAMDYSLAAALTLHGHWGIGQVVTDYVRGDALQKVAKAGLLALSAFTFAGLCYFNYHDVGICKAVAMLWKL
# Sequence (D0VWV4 whole entry): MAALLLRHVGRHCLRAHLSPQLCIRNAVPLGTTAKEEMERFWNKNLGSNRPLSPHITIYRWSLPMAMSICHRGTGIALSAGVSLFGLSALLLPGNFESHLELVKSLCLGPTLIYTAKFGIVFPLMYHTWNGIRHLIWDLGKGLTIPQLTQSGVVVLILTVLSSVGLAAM
# EXPERIMENTAL PROTOCOL: Inhibition of porcine heart SQR in SCR complex assessed as reduction in ubiquinol-cytochrome c reductase (complex 3) activity by measuring cytochrome c level using succinate and DCIP substrate at 23 degC by spectrophotometry
Listed next: entries and their corresponding IC50.
The figure you give is taken to be in nM; do not add the unit.

CC(C)CC(C)c1sccc1NC(=O)c1cn(C)nc1C(F)(F)F (configuration not stated)
527

Moving on to the next compound.
Retrieve IC50 measured for Cn1cc(C(=O)Nc2ccc3oc(SCc4ccc(OC(F)(F)F)cc4)nc3c2)c(C(F)F)n1 and print it.
11

* * *

Listed next: entries and their corresponding pIC50.
# EXPERIMENTAL PROTOCOL: Inhibition of porcine heart SQR in SCR complex assessed as reduction in ubiquinol-cytochrome c reductase (complex 3) activity by measuring cytochrome c level using succinate and DCIP substrate by spectrophotometry
# Set-up: species or system Sus scrofa
Units for pIC50: none; it is -log10 of a concentration expressed in mol/L.

Below, each entry is followed by its recorded pIC50 result.
Cc1ccc(CSc2nc3cc(NC(=O)c4cn(C)nc4C(F)(F)F)ccc3o2)cc1
6.57
COc1ccc(CSc2nc3cc(NC(=O)c4cn(C)nc4C(F)F)ccc3o2)cc1
6.68
Cn1cc(C(=O)Nc2ccc3oc(SCc4cccc(F)c4)nc3c2)c(C(F)F)n1
6.61
Cn1cc(C(=O)Nc2ccc3oc(SCc4cccc(Br)c4)nc3c2)c(C(F)(F)F)n1
6.92

Moving on to the next compound.
Retrieve pIC50 measured for Cn1cc(C(=O)Nc2ccc3oc(SCc4cccc(F)c4)nc3c2)c(C(F)(F)F)n1 and print it.
6.38

* * *

Listed next: entries and their corresponding IC50.
# EXPERIMENTAL PROTOCOL: Inhibition of porcine heart SQR in SCR complex assessed as reduction in ubiquinol-cytochrome c reductase (complex 3) activity by measuring cytochrome c level using succinate and DCIP substrate by spectrophotometry
# Design: species or system Sus scrofa
The figure you give is taken to be in nM; do not add the unit.

Cn1cc(C(=O)Nc2ccc3oc(SCc4ccc(Cl)cc4)nc3c2)c(C(F)F)n1
57
Cn1cc(C(=O)Nc2ccc3oc(SCc4ccc(C#N)cc4)nc3c2)c(C(F)(F)F)n1
562
CC(C)CC(C)c1sccc1NC(=O)c1cn(C)nc1C(F)(F)F (centres undefined) [PENTHIOPYRAD]
1320
Cn1cc(C(=O)Nc2ccc3oc(SCc4ccc(F)cc4)nc3c2)c(C(F)(F)F)n1
210
Cn1cc(C(=O)Nc2ccc3oc(SCc4cccc(Cl)c4)nc3c2)c(C(F)(F)F)n1
149

Moving on to the next compound.
Retrieve IC50 measured for Cn1cc(C(=O)Nc2ccc3oc(SCc4cccc(Br)c4)nc3c2)c(C(F)F)n1 and print it.
62

* * *

# EXPERIMENTAL PROTOCOL: Inhibition of rat liver SQR
MEASURE NAME: pIC50
Units for pIC50: none; it is -log10 of a concentration expressed in mol/L.

Retrieve pIC50 measured for COc1[nH]c(=O)c(C(=O)[C@@H](C)C[C@H](C)[C@@H](Cl)CCl)c(O)c1OC and print it.
8.43

* * *

Listed next: entries and their corresponding Ki.
# EXPERIMENTAL PROTOCOL: Non-competitive inhibition of porcine heart SCR with respect to cytochrome c substrate at 23 degC by double-reciprocal plot
# Parameters: species or system Sus scrofa
The figure you give is taken to be in nM; do not add the unit.

CC(C)CC(C)c1sccc1NC(=O)c1cn(C)nc1C(F)(F)F (configuration not stated) [PENTHIOPYRAD]
1390

Retrieve Ki measured for Cn1cc(C(=O)Nc2ccc3oc(SCc4ccc(OC(F)(F)F)cc4)nc3c2)c(C(F)F)n1 and print it.
43

* * *

Listed next: entries and their corresponding pIC50.
# EXPERIMENTAL PROTOCOL: Inhibition of porcine heart SQR in SCR complex assessed as reduction in ubiquinol-cytochrome c reductase (complex 3) activity by measuring cytochrome c level using succinate and DCIP substrate by spectrophotometry
# Set-up: species or system Sus scrofa
Units for pIC50: none; it is -log10 of a concentration expressed in mol/L.

Below, each entry is followed by its recorded pIC50 result.
Cn1cc(C(=O)Nc2ccc3oc(SCc4ccc(F)cc4)nc3c2)c(C(F)F)n1
7.00
Cn1cc(C(=O)Nc2ccc3oc(SCc4cccc(Cl)c4)nc3c2)c(C(F)F)n1
7.09

Moving on to the next compound.
Retrieve pIC50 measured for Cn1cc(C(=O)Nc2ccc3oc(SCc4ccc(Cl)cc4)nc3c2)c(C(F)(F)F)n1 and print it.
6.95
